- assayRemarks: Half-life in aqueous solution(pH 7.4).
- Type: ADME
measurementType: half-life (h)
Provide the reading as a plain figure in h.

Worked examples follow.
Q: Any idea what its half-life is? The compound is O=C([C@@H]1CCCN1)N1CCC[C@H]1B(O)O
A: 1.5

Q: C[C@H](N)C(=O)N1CCC[C@H]1B(O)O ?
A: 0.5

Q: N#C[C@@H]1CCCN1C(=O)[C@@H](N)CCCCN ?
A: 24

***
Q: Any idea what its half-life is? The compound is CC[C@H](C)[C@H](N)C(=O)N1CCC[C@H]1C#N
A: 48

Q: N#C[C@@H]1CCCN1C(=O)[C@@H]1CCCN1 ?
A: 7.5
